Tested on: Hs578T complex spheroid growth, percent test/control
Test: Anticancer human tumor Hs578T cell line growth inhibition [AhR];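 also: luminescent viability signal as a proxy for spheroid growth; spheroids exposed to agents for one week after three days of growth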
Settings: second compound 3.16 µM; first compound 0.0316 µM; hits give low values
Exam item: assign Condition met to entries whose viability, T/C is below 80% and Condition not met to entries at or above 80%. Note that a value of exactly 80% receives Condition not met.

Answered cases to consult:
Asked: For Nc1ncn(C2CC(O)C(CO)O2)c(=O)n1 (stereo unspecified) + CC(CO)NC(=O)c1cc(-c2ccc(Cl)cc2)nn(-c2cnn(C)c2)c1=O , is the recorded viability, T/C below the cut-off of 80%?
Given back: Condition not met

Asked: For COc1ccc([C@@H](O)c2cc(-c3ncnc4cc(N5CCOCC5)ccc34)c(F)cc2Cl)nn1 + Cc1cncc(-c2nc(NCCc3c[nH]c4ccccc34)c3ncn(C(C)C)c3n2)c1 , is the recorded viability, T/C below the cut-off of 80%?
Given back: Condition met

Asked: For Cn1ncnc1C1c2n[nH]c(=O)c3cc(F)cc(c23)NC1c1ccc(F)cc1 (stereo unspecified) + CC(CO)NC(=O)c1cc(-c2ccc(Cl)cc2)nn(-c2cnn(C)c2)c1=O , is the recorded viability, T/C below the cut-off of 80%?
Given back: Condition not met

Asked: For O=C(C=Cc1cccc(S(=O)(=O)Nc2ccccc2)c1)NO + Cc1cncc(-c2nc(NCCc3c[nH]c4ccccc34)c3ncn(C(C)C)c3n2)c1 , is the recorded viability, T/C below the cut-off of 80%?
Given back: Condition met

---
Asked: For CC(C)c1c(-c2ccccc2)nc2c(C#N)c[nH]n2c1=O + CC(CO)NC(=O)c1cc(-c2ccc(Cl)cc2)nn(-c2cnn(C)c2)c1=O , is the recorded viability, T/C below the cut-off of 80%?
Given back: Condition not met

All figures here come from PubChem BioAssay AID1919010.
